Test system: OVCAR-8 ovarian
Test: NCI-60 one-dose screen, 48 h (100 = growth as untreated, 0 = no growth, -100 = all killed)
Conditions: 10 µM unless noted
About 83,000 compounds went through this panel and 20% of them were active in at least one assay; those are over-represented in the sample as a whole.
This listing pairs compounds with measured growth.
Measurement Label: growth (%)

| Compound | Measurement Label | Experimental Result |
| --- | --- | --- |
| ClC1=C(Br)C(Br)(Br)C(=C(Br)Br)C1(Br)Br | growth | 85.1 |
| Nc1c(C(=O)Nc2cccc3cnccc23)sc2nc3c(cc12)C(=O)CCC3 | growth | 100 |
| CC(=O)c1cc2c(N)c(C(=O)Nc3cccc4ccncc34)sc2nc1C | growth | 108 |
| COc1cc2oc(-c3cccc(C(=O)Nc4ccc(Br)cc4)c3)cc(=O)c2c(OC)c1OC | growth | 40.5 |
| CC(C)(C)c1cc(/C=N/NC(=O)c2ccccc2NC(=O)c2cccs2)c(O)c(C(C)(C)C)c1 | growth | 10.1 |
| C=C1C(=O)O[C@H]2[C@H]1CC/C(CNC(=O)/C=C/c1ccccc1)=C\CC[C@@]1(C)O[C@@H]21 | growth | 5.85 |
| CCOC(=O)CC1CSC(N/N=C/c2ccc(-n3cccn3)cc2)=N1 (stereo not drawn) | growth | 97.8 |
| COc1ccccc1/C(C)=N/NC(=O)CSc1nc2ccccc2c(=O)n1Cc1ccc(S(N)(=O)=O)cc1 | growth | 98.7 |
| COc1ccc(OC)c(-c2cc(-c3ccc(Cl)cc3)c3c(N)c(C(=O)c4ccc(Cl)cc4)sc3n2)c1 | growth | 104 |
| CCNc1nc2cc(Nc3ccnc4cc(Cl)ccc34)ccc2o1 | growth | 85.3 |
| N#CC1=C(N)Oc2c(ccc3ccccc23)C1c1ccccc1Cl (stereo not drawn) | growth | 7.5 |
| C=C(CBr)[C@@H]1CC[C@]2(COC(C)=O)CC[C@]3(C)[C@H](CC[C@@H]4[C@@]5(C)CCCNC(C)(C)[C@@H]5CC[C@]43C)[C@@H]12 | growth | 40.4 |
| CN1CCC(=C(c2ccccc2)c2ccccc2)C(c2ccccc2)C1 (stereo not drawn) | growth | 99.3 |
| COc1cccc(-c2nc3occn3c2-c2ccnc(NCCNS(=O)(=O)c3cccc4ccccc34)n2)c1 | growth | 97.4 |
| COc1ccc(CNCCN2C(=O)c3ccc4c5c(ccc(c35)C2=O)C(=O)N(CCNCc2ccc(OC)c(OC)c2OC)C4=O)c(OC)c1OC | growth | -9.78 |
| CCN1CCN(CCNc2nccc(-c3c(-c4cccc(OC)c4)nc4occn34)n2)S1(=O)=O | growth | 99.3 |
| CC(=O)O[C@@H]1C2CCC3C(CC[C@@]4(C)C3CC[C@@H]4C(C)N(C)C)[C@@]2(C)CC[C@@H]1NC(=O)C=C(C)C (stereo partly drawn) | growth | 44.3 |
| O=S(=O)(NCCNc1nccc(-c2c(-c3cccc(O)c3)nc3occn23)n1)c1ccccc1 | growth | 79.8 |

---

Tested on: SK-MEL-2 melanoma
Experiment: NCI-60 one-dose screen, 48 h (100 = growth as untreated, 0 = no growth, -100 = all killed)
Details: 10 µM unless noted
Compounds without any hit were thinned out: in the full panel of roughly 83,000, 20% have a hit.
Mark 1 for growth under 90%, -1 if at or over.

| Compound | Class Assignment |
| --- | --- |
| CCCCCOc1ccc(/C=N/Nc2cc(C)nc3ccc(Cl)cc23)cc1 | -1 |
| O=C1Nc2cc(-c3ccc(NC(=O)c4ccccc4)cc3)ccc2/C1=C/c1ccc[nH]1 | -1 |
| CCc1ccc(-c2cn3ccnc3c(-c3ccc4ncn(Cc5ccccc5)c4c3)n2)cc1 | 1 |
| COc1ccc(C(=O)c2cc(OC)c(OC)c(OC)c2)cc1O | 1 |
| CC(c1ccccc1)C(C(=O)c1ccccc1)c1ccccc1 (stereo not given) | 1 |
| CCOC(=O)C1=C(C)NC(SCc2cc(=O)oc3ccc(F)cc23)=N[C@@H]1c1cccc2ccccc12 | 1 |
| Cn1cc(-c2nc(-c3c[nH]c4c(Cl)nccc34)cs2)c2cc(F)ccc21 | -1 |
| Cc1cc2c(c(C)c1Cl)C(=O)/C(=C/c1ccc(O)c(O)c1)O2 | -1 |
| Cc1cc(C)c(S(=O)(=O)Oc2ccccc2[N+](=O)[O-])c(C)c1 | 1 |
| CCCCCC(=O)Oc1ccc(/C(=C(\C)c2ccccc2)c2ccc(OCCN3CCCCC3)cc2)cc1 | 1 |
| CNC(=O)c1cccc(Cn2nc(C)c(NC(=O)c3ccc(COc4ccc(C(F)(F)F)cc4C)cc3)c2C)n1 | 1 |
| C/C(=N\Nc1cc(C)nc2ccc(Br)cc12)c1ccc([N+](=O)[O-])cc1 | -1 |
| COc1cc2nc(-c3ccc(Cl)cc3)cc(OCCCN3CCCCC3)c2cc1OC | 1 |
| N#Cc1c(NCc2ccccc2I)sc2c1CCCCC2 | -1 |
| NS(=O)(=O)c1ccc(CCN2C(=O)C=CC2=O)cc1 | -1 |
| C=C(C)[C@@H]1CC[C@]2(C(=O)N3CCN(C)CC3)CC[C@]3(C)[C@H](CC[C@@H]4[C@@]5(C)CC[C@H](O)C(C)(C)[C@@H]5CC[C@]43C)[C@@H]12 | 1 |

---

Tested on: COLO 205 colon
Experiment: NCI-60 one-dose screen, 48 h (100 = growth as untreated, 0 = no growth, -100 = all killed)
Details: 10 µM unless noted
This is part of a sample that, as a whole, favours compounds with a hit. Of some 83,000 tested, about 20% had one in any assay. Calls of active or inactive are those of the source. Rule for the calls: active = growth percent below 10; inactive = the rest.

| Smiles Code | growth |
| --- | --- |
| CCCCOc1ccc(/C=N/Nc2cc(C)nc3ccc(Br)cc23)cc1 | -58.5% (active) |
| Cc1ccc(/C=N/NC(=O)CSc2nc3ccccc3c(=O)n2Cc2ccc(S(N)(=O)=O)cc2)cc1 | 105% (inactive) |
| CCOC(=O)[C@@H](C)C[C@H](Cc1ccccc1)NC(=O)c1csc([C@@H](C[C@H](C(C)C)N(C)C(=O)[C@@H](NC(=O)[C@H]2C[C@H](O[Si](C)(C)C(C)(C)C)CCN2C)C(C)C)OC(C)=O)n1 | -72.6% [9.25 µM] (active) |
| OCc1cnccc1NCCCOc1ccccc1 | 123% (inactive) |

---

Tested on: K-562 leukemia
Experiment: NCI-60 one-dose screen, 48 h
Details: 10 µM unless noted
About 83,000 compounds went through this panel and 20% of them were active in at least one assay; those are over-represented in the sample as a whole. Calls of active or inactive are those of the source. How the source made its calls: active means growth percent below 10; inactive means the rest.
Outcome codes: active, inactive

| Compound | Class Assignment |
| --- | --- |
| CCOC(=O)c1cc(C(=O)c2ccc(OC)c(OC)c2)n2ccc(/C=C/c3cc[n+](CC(=O)c4ccc(OC)c(OC)c4)cc3)cc12 | inactive |
| O=C(CSc1nc2sc3c(c2c(=O)n1-c1ccc(Cl)cc1)CCCC3)Nc1nc(-c2cccc(Br)c2)cs1 | inactive |
| CSc1nc2sc3cccc(Cl)c3n2c(=N)c1C#N | inactive |
| CC(Oc1ccc(C(=O)O)cc1C(F)(F)F)c1ccc(Oc2ccccc2)cn1 (stereo not drawn) | inactive |
| Cn1ccnc1C(=O)/C=C/c1ccc(CC(=O)NC2CCCCC2)cc1 | inactive |
| O=C1OC(Cc2ccccc2)C1c1ccccc1 (stereo not drawn) | inactive |
| CNC(=O)c1cccc(Cn2nc(C)c(NC(=O)c3ccc(COc4ccc(C(F)(F)F)cc4C)cc3)c2C)n1 | inactive |
| C#CCNC(=O)[C@]1(C)CC[C@]2(C)CC[C@@H]3C(=CC[C@H]4[C@@]3(C)CC[C@H]3C(C)(C)C(=O)CC[C@]43C)[C@@H]2C1 | inactive |
| C=C(C)[C@@H]1CC[C@]2(CN)CC[C@]3(C)[C@H](CC[C@@H]4[C@@]5(C)CCCNC(C)(C)[C@@H]5CC[C@]43C)[C@@H]12 | active |
| Nc1n[nH]c2cccc(C#Cc3cccc(C(=O)Nc4cc(CN5CCOCC5)cc(C(F)(F)F)c4)c3)c12 | active |
| COc1cc(-c2n/c(=C\c3c(O)[nH]c4ccc(Cl)cc34)cc3c2=Nc2ccccc2-3)ccc1F | inactive |
| COc1ccc(C(C)=O)c(OC)c1 | inactive |
| COC(=O)N[C@H]1CCc2c(Cl)c(OC)c(OC)c(OC)c2-c2ccc(SC)c(=O)cc21 | active |
| COc1ccc(C(=O)CSc2nc(-c3cc(OC)ccc3OC)cc(-c3ccc(Cl)cc3)c2C#N)cc1 | inactive |
| CCCCCN1C=C/C(=C\C(=O)N(C)c2ccccc2Br)c2ccccc21 | inactive |
| O=S(=O)(NCCNc1nccc(-c2c(-c3cccc(F)c3)nc3sccn23)n1)c1ccccc1 | inactive |
| CC1=CCC(OC(=O)C(C)(O)CCC(O)(C(=O)OC2(C)C=CC(O)(C(C)C)CC2)C(C)C)(C(C)C)CC1 (stereo not drawn) | inactive |
| CCCCCCCCCCCCCCCC[N+]1(C)CCN(SN2CC[N+](C)(CCCCCCCCCCCCCCCC)CC2)CC1 | inactive |
